As shown below, each of these compounds has a reported Post-emergence action against STEME value.
# Tested on: Stellaria media
# EXPERIMENT: Post-emergence herbicidal effect against STEME
# Type: in vivo
# RUN_PARAMETERS: 1280 g/ha, visual assessment about 3 weeks after treatment, 100% = plants have died, 0% = like control plants
# value in %; strip the unit string

Look over these answered cases.
Case O=C(O)CSc1nn(-c2ccccc2F)c(-c2ccc(Cl)nc2)c1Br , Stellaria media, Post-emergence action against STEME recorded as 100

Case CCOC(=O)CSc1nn(-c2ccccc2F)c(-c2ccc(F)c(F)c2)c1Cl , Stellaria media, Post-emergence action against STEME recorded as 100

Case CCOC(=O)CSc1nn(-c2ccccc2F)c(-c2ccc(F)c(F)c2)c1Br , Stellaria media, Post-emergence action against STEME recorded as 100

Case COC(=O)CNC(=O)CSc1nn(-c2ccccc2F)c(-c2cccnc2)c1Br , Stellaria media, Post-emergence action against STEME recorded as 90

Case COC(=O)CNC(=O)CSc1nn(-c2ccccc2F)c(-c2cncc(F)c2)c1Br , Stellaria media, Post-emergence action against STEME recorded as 100

***
Case O=C(O)CSc1nn(-c2ccccc2F)c(-c2cc(F)cc(Cl)c2)c1Br , Stellaria media, Post-emergence action against STEME recorded as 100

Case CCOC(=O)CSc1nn(-c2ccc(F)cc2F)c(-c2ccc(F)c(F)c2)c1Br , Stellaria media, Post-emergence action against STEME recorded as 90

Case CCOC(=O)CSc1nn(-c2ccc(F)cc2)c(-c2ccc(F)cc2)c1Br , Stellaria media, Post-emergence action against STEME recorded as 90

Case O=C(O)CSc1nn(-c2ccccc2F)c(-c2ccc(F)c(F)c2)c1Br , Stellaria media, Post-emergence action against STEME recorded as 100

Case CCOC(=O)CSc1nn(-c2ccccc2F)c(-c2ccc(F)nc2)c1Br , Stellaria media, Post-emergence action against STEME recorded as 90
